Target: Angiotensin II receptor (Rattus norvegicus, UniProt P29089+P25095+P35351)
Assay: Displacement of [3H]-AII from the Angiotensin II receptor isolated from the liver of rats
Readout Type: IC50 (nM)

* Cc1cc(SCc2ccc(-c3ccccc3-c3nn[nH]n3)cc2)c2ccccc2n1 | 370
* CCc1cc(Sc2ccc(-c3ccccc3-c3nn[nH]n3)cc2)c2ncccc2n1 | 20
* Cc1nc(Sc2ccc(-c3ccccc3-c3nn[nH]n3)cc2)c2ccccc2n1 | 350
* Cc1cc(Sc2ccc(-c3ccccc3-c3nnn(C(c4ccccc4)(c4ccccc4)c4ccccc4)n3)cc2)c2ccccc2n1 | 4700
* Cc1cc(CCc2ccc(-c3ccccc3-c3nn[nH]n3)cc2)c2ccccc2n1 | 270
* Cc1cc(OCc2ccc(-c3ccccc3-c3nn[nH]n3)cc2)c2ccccc2n1 | 31
